Measured values drawn from patent US9290511B2 for this set.

experimentalSystem: Kir3.1/3.4 (Rattus norvegicus, UniProt P48548+P63251)
Construct: expressed in transfected cells
Sequence (P63251 whole entry): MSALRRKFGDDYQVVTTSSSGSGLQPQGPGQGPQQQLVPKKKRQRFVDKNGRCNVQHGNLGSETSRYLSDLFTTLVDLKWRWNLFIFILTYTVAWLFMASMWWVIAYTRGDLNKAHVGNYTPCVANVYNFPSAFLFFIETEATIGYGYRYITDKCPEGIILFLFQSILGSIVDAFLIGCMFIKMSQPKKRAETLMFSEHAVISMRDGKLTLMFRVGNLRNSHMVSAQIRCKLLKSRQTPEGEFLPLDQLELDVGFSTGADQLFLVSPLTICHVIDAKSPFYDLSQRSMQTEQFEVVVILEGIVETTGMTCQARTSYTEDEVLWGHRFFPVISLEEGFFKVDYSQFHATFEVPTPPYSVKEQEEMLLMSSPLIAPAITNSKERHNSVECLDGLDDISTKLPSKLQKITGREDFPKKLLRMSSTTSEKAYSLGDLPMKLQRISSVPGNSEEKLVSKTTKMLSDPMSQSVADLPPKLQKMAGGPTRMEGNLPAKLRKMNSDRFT
Sequence (P48548 whole entry): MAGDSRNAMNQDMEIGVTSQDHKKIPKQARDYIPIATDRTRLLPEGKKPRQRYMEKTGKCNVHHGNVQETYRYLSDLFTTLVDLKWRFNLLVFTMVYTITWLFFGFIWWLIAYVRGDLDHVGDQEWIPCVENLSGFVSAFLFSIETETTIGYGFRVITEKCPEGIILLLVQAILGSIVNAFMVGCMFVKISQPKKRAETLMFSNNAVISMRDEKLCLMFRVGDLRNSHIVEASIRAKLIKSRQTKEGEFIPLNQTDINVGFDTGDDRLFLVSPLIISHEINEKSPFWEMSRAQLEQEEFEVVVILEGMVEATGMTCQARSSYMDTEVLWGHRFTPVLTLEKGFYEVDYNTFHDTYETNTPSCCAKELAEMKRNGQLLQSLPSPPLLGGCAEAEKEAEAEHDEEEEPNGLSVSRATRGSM
assay: Kir3.1/3.4 Electrophysiology Method (manual whole-cell patch clamp)
Format: cell-based
settings: Electrophysiology Method (TABLE 1)
pIC50: −log10 of the molar value.
Listed below: pIC50 values for each entry.
valueType: pIC50

                                   compound     datavalue
0  COc1ncccc1-c1csc2ncnc(N3C4CCC3CC(CO)C4)c12 (stereo not shown)  5.52 to 6.30
1  CC(C)c1csc2ncnc(N3CCC(COCCN4CCCC4)CC3)c12        > 6.30
2  c1ccc(-c2csc3nc(N4CCN(CCN5CCCC5)CC4)ncc23)cc1        > 6.30
3  c1sc2nc(N3CCC(COCCN4CCCC4)CC3)ncc2c1C1CCCCC1        > 6.30
4  CN1CCCC1CCOCC1CCN(c2nc(N3CCC(C(N)=O)C3)nc3scc(-c4ccccc4)c23)CC1 (stereo not shown)        > 6.30
5  CN1CC(N(C)CC2CCN(c3ncnc4scc(-c5ccccc5)c34)CC2)CC1=O (stereo not shown)  5.52 to 6.30
6  NC(=O)C1CCN(c2nc(N3CCC(COCCN4CCCC4)CC3)nc3scc(-c4ccccc4)c23)C1 (stereo not shown)        > 6.30
